molecular target: Corticotropin-releasing factor receptor 2/Corticotropin-releasing factor-binding protein (Homo sapiens, UniProt P24387+Q13324); test: activators of CRF receptor 2 with binding protein – uHTS hits, confirmation (AID 602473); format: functional; conditions: read-out: EC50_Mean
Sequence (Q13324 whole entry): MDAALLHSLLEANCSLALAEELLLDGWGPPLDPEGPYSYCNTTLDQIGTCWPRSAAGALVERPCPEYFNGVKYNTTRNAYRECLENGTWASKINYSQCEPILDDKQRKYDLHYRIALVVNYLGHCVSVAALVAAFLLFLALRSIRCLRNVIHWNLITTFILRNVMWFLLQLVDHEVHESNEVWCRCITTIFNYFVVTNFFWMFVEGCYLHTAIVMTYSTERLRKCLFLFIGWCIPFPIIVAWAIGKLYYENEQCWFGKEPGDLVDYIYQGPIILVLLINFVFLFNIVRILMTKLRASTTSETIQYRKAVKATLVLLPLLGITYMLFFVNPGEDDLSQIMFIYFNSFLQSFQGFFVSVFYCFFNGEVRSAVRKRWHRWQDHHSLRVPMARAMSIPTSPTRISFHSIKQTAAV
Sequence (P24387 whole entry): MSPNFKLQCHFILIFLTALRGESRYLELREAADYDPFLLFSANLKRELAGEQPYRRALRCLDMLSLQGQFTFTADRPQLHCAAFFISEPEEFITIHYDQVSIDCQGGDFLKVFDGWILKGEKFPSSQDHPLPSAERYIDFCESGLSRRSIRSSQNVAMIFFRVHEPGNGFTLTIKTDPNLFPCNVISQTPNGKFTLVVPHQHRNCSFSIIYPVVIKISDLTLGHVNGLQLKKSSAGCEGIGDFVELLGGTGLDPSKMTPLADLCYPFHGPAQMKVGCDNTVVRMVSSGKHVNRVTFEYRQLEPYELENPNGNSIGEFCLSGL
Activity calls are given as the source filed them.
Pick one and only one: active, inactive

Please review the entries below; each comes with its answer.
>>> category_label("Cc1ccc(C(=O)COc2cc(O)c3c(=O)cc(-c4ccccc4)oc3c2)cc1")
"inactive"
>>> category_label("CC(C)(C)c1cc(C(=O)O)nn1-c1ccccc1")
"inactive"
>>> category_label("Cc1cccc(NC(=O)C(C)N2C(=O)C3C4CC(C(Br)C4Br)C3C2=O)c1 (configuration not stated)")
"active"
>>> category_label("Oc1nc2cc3c(cc2cc1C(c1nnnn1C1CCCC1)N1CCCc2ccccc21)OCCO3 (configuration not stated)")
"inactive"
>>> category_label("Cc1nc2cc(C(=O)NCc3ccc4c(c3)OCO4)ccc2n1-c1ccc(Br)cc1")
"inactive"

Q: Record lookup: outcome of this test for "CCn1c(C)c(C(C)=O)c(N2CCN(c3ccccc3)CC2)nc1=S" ?
A: inactive

Q: Next: "COC(=O)c1ccc2c(c1)C(=O)/C(=C/c1ccc(O)cc1)O2"
A: inactive

Q: Try the molecule "O=C(c1cccc(S(=O)(=O)N2CCOCC2)c1)N(Cc1ccc(F)cc1)Cc1ccco1"
A: inactive

Q: Cool, now "COc1ccc(-c2c(C(F)(F)F)nn3c(O)cc(-c4ccccc4)nc23)cc1"
A: inactive

Q: Also "CC1=CC(C)(C)N(C(=O)CSc2nnc(N)s2)c2ccccc21" , if possible.
A: inactive

Q: Entry to check: CCOc1ccccc1NC(=O)C1CCCN1S(=O)(=O)c1ccccc1C(F)(F)F (configuration not stated)
A: inactive

Q: What do we get for "COCc1cc(O)n2nc(-c3ccccc3)cc2n1" ?
A: inactive

====

biological target: UniProt Q9HC16; assay: Dose Response confirmation of small molecule APOBEC3G DNA Deaminase Inhibitors via a fluorescence-based single-stranded DNA deaminase assay. [Related pubchem assays (depositor defined):AID493012, AID493028]; type: functional
Sequence (Q9HC16 whole entry): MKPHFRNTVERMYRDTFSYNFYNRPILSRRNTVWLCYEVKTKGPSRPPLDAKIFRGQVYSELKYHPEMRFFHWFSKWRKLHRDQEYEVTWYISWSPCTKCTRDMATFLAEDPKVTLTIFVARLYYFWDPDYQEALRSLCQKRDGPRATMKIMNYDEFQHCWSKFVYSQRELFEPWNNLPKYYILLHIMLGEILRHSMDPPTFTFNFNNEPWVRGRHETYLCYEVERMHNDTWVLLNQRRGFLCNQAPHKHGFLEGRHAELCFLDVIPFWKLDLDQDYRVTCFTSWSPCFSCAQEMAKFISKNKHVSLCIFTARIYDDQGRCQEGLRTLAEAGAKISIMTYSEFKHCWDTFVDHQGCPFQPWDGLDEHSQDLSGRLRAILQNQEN
The source made the active and inactive calls.
Measured attribute: IC50

>>> recorded_result("C=C(C)C(=O)Nc1cccc(C2=NOC3(C2)C[C@@H](C(N)=O)N(C(=O)C(=C)C)C3)c1 (some centres undefined)")
"5.94 µM (active)"

Q: What value of IC50 has been reported for the following compound? "C=CCn1c(S)nnc1-c1ccc2ncccc2c1"
A: 11.9 µM (active)

Q: Could you do the same for "COc1ccccc1NS(=O)(=O)c1cc(NC(=O)c2cccs2)ccc1N1CCCC1" , please?
A: 37.1 µM (active)

Q: Now give it for "COc1cccc2cc(-c3n[nH]c(=S)n3C)oc12" too.
A: 2.18 µM (active)

====

test system: Streptococcus sp. 'group A'; test: growth inhibition of control SK(-) GAS strain, dose response, counter-screen for streptokinase expression inhibitor project, luminescence, kanamycin, BacTiterGlo, confirmation (AID 1900); format: functional, organism-based
Active and inactive are the calls of the source.
A collection of compounds and their measured EC50

Completed entries (count: 2):
>>> recorded_result("Cc1cc(C)c2nc(NNC(=O)c3ccc(S(=O)(=O)N4CCCC(C)C4)cc3)sc2c1 (stereo not drawn)")
"0.55 µM (active)"
>>> recorded_result("N=C(N)N/N=C/c1ccc(OCc2ccccc2)c(OCc2ccccc2)c1")
"5.75 µM (active)"

// below: EC50 requested for another compound
Q: What value of measured EC50 is listed for "Clc1ccc(-c2csc(Nc3ccccc3)[n+]2Cc2ccco2)c(Cl)c1" ?
A: 12.3 µM (active)

meta.source: ChEMBL document CHEMBL1201862
